Where these numbers come from: the Immune Epitope Database (IEDB)

- measured target: HLA-A*02:01
- protocol notes: IEDB peptide-MHC binding, purified MHC/competitive/fluorescence; filed as Kd, often an IC50 or EC50 that approximates it; bounds were set here for any values at or beyond the usual limits of such assays
- conditions: source organism: Kurkino virus
pKd: −log10 of the molar value.
measured parameter: pKd

- RRAYSGKQY: ≤ 4.70

---

- measured target: HLA-B*35:01
- protocol notes: IEDB peptide-MHC binding, purified MHC/competitive/radioactivity; filed as Kd, often an IC50 or EC50 that approximates it; bounds were set here for any values at or beyond the usual limits of such assays
- conditions: source organism: Mammarenavirus tacaribeense
pKd: −log10 of the molar value.
measured parameter: pKd

• VPYCNYTRFW = 5.47

---

- measured target: HLA-B*45:06
- protocol notes: IEDB peptide-MHC binding, purified MHC/competitive/fluorescence; filed as Kd, often an IC50 or EC50 that approximates it; bounds were set here for any values at or beyond the usual limits of such assays
- conditions: source organism: Mycobacterium tuberculosis H37Rv
measured parameter: Kd

* SPAAYVLPL | ≥ 5 µM

---

- measured target: HLA-A*68:02
- protocol notes: IEDB peptide-MHC binding, purified MHC/direct/fluorescence; filed as Kd, often an IC50 or EC50 that approximates it; bounds were set here for any values at or beyond the usual limits of such assays
- conditions: source organism: Bacillus anthracis
measured parameter: Kd

• PRFGSCYFL = ≥ 20 µM

---

- measured target: HLA-B*15:01
- protocol notes: IEDB peptide-MHC binding, purified MHC/competitive/fluorescence; filed as Kd, often an IC50 or EC50 that approximates it; bounds were set here for any values at or beyond the usual limits of such assays
- conditions: source organism: Shigella boydii CDC 3083-94
pKd: −log10 of the molar value.
measured parameter: pKd

- TPAVCGPVI: ≤ 4.70

---

- measured target: HLA-A*11:01
- protocol notes: IEDB peptide-MHC binding, purified MHC/direct/fluorescence; filed as Kd, often an IC50 or EC50 that approximates it; bounds were set here for any values at or beyond the usual limits of such assays
- conditions: source organism: West Nile virus
The entries below come with measured Kd values attached.
measured parameter: Kd

• MVGVGSLVK = 0.027 µM
• LVKTESWIL = ≥ 20 µM
• AHYEEDVNL = ≥ 20 µM

---

Measured Kd of individual entries
- measured target: HLA-A*02:01
- protocol notes: IEDB peptide-MHC binding, purified MHC/competitive/radioactivity; filed as Kd, often an IC50 or EC50 that approximates it; bounds were set here for any values at or beyond the usual limits of such assays
- conditions: source organism: HIV-1 M:B_MN
measured parameter: Kd (µM)

* WLWYIKIFI | 0.141
* IISLWDQSL | 0.279

---

- measured target: HLA-B*58:01
- protocol notes: IEDB peptide-MHC binding, purified MHC/direct/fluorescence; filed as Kd, often an IC50 or EC50 that approximates it; bounds were set here for any values at or beyond the usual limits of such assays
- conditions: source organism: Bacillus anthracis
pKd: −log10 of the molar value.
measured parameter: pKd

• PRFGSCYFL = ≤ 4.70

---

- measured target: HLA-A*29:02
- protocol notes: IEDB peptide-MHC binding, purified MHC/direct/fluorescence; filed as Kd, often an IC50 or EC50 that approximates it; bounds were set here for any values at or beyond the usual limits of such assays
- conditions: source organism: Orthohantavirus negraense
pKd: −log10 of the molar value.
measured parameter: pKd

- RRFTQAIYD: ≤ 4.70

---

- measured target: HLA-B*39:01
- protocol notes: IEDB peptide-MHC binding, purified MHC/competitive/fluorescence; filed as Kd, often an IC50 or EC50 that approximates it; bounds were set here for any values at or beyond the usual limits of such assays
- conditions: source organism: Vibrio antiquarius
pKd: −log10 of the molar value.
measured parameter: pKd

* FAMTVPLLI | 8.05

---

- measured target: HLA-A*68:02
- protocol notes: IEDB peptide-MHC binding, purified MHC/direct/fluorescence; filed as Kd, often an IC50 or EC50 that approximates it; bounds were set here for any values at or beyond the usual limits of such assays
- conditions: source organism: Orthohantavirus negraense
pKd: −log10 of the molar value.
measured parameter: pKd

• RRFTQAIYD = ≤ 4.70

---

Listed below: Kd values for each entry.
- measured target: HLA-A*01:01
- protocol notes: IEDB peptide-MHC binding, purified MHC/competitive/radioactivity; filed as Kd, often an IC50 or EC50 that approximates it; bounds were set here for any values at or beyond the usual limits of such assays
- conditions: source organism: Mammarenavirus lassaense
measured parameter: Kd (µM)

- CFISVNDRLV: 18.1
- KTGECSKCY: 12.8

---

- measured target: HLA-C*05:01
- protocol notes: IEDB peptide-MHC binding, purified MHC/direct/fluorescence; filed as Kd, often an IC50 or EC50 that approximates it; bounds were set here for any values at or beyond the usual limits of such assays
- conditions: source organism: Rattus norvegicus
pKd: −log10 of the molar value.
measured parameter: pKd

- YFDPANGKF: 6.96

---

- measured target: HLA-B*27:05
- protocol notes: IEDB peptide-MHC binding, purified MHC/direct/fluorescence; filed as Kd, often an IC50 or EC50 that approximates it; bounds were set here for any values at or beyond the usual limits of such assays
- conditions: source organism: Vibrio cholerae
measured parameter: Kd

- EGIEGRIAY: ≥ 20 µM

---

- measured target: HLA-B*18:01
- protocol notes: IEDB peptide-MHC binding, purified MHC/competitive/fluorescence; filed as Kd, often an IC50 or EC50 that approximates it; bounds were set here for any values at or beyond the usual limits of such assays
- conditions: source organism: Homo sapiens
pKd: −log10 of the molar value.
Form field: pKd (one value per entry).
measured parameter: pKd

• LMQCWQLLA = ≤ 4.70
• LLAMTFWPA = ≤ 4.70
• FRHSVVVPY = 6.32

---

- measured target: HLA-A*26:01
- protocol notes: IEDB peptide-MHC binding, purified MHC/competitive/fluorescence; filed as Kd, often an IC50 or EC50 that approximates it; bounds were set here for any values at or beyond the usual limits of such assays
- conditions: source organism: Mycobacterium tuberculosis variant bovis BCG str. Pasteur 1173P2
pKd: −log10 of the molar value.
measured parameter: pKd

* DEGFHAATV | ≤ 4.70

---

- measured target: HLA-A*03:01
- protocol notes: IEDB peptide-MHC binding, purified MHC/competitive/fluorescence; filed as Kd, often an IC50 or EC50 that approximates it; bounds were set here for any values at or beyond the usual limits of such assays
- conditions: source organism: Vibrio cholerae 2740-80
measured parameter: Kd

* CERYGFPAS | ≥ 20 µM

---

pIC50 values, listed per item
- measured target: HLA-A*11:01
- protocol notes: IEDB peptide-MHC binding, purified MHC/competitive/fluorescence; bounds were set here for any values at or beyond the usual limits of such assays
- conditions: source organism: Variola virus
pIC50: −log10 of the molar value.
measured parameter: pIC50

- KSMRDQRKG: 4.32
- KVFLPNPAF: 4.39
- AVARKHHTK: 6.33

---

- measured target: HLA-A*02:06
- protocol notes: IEDB peptide-MHC binding, purified MHC/competitive/radioactivity; filed as Kd, often an IC50 or EC50 that approximates it; bounds were set here for any values at or beyond the usual limits of such assays
- conditions: source organism: Trypanosoma cruzi
Kd by entry:
measured parameter: Kd (nM)

* GITRPTTLV | 12200
* FVDYNFSLV | 0.655
* HVGRPTTVV | 639
* FANNKFTLV | 3.05

---

- measured target: HLA-A*01:01
- protocol notes: IEDB peptide-MHC binding, purified MHC/direct/fluorescence; filed as Kd, often an IC50 or EC50 that approximates it; bounds were set here for any values at or beyond the usual limits of such assays
- conditions: source organism: Pasteurella multocida
measured parameter: Kd

- VMLDWGIEL: ≥ 20 µM

---

- measured target: HLA-A*02:01
- protocol notes: IEDB peptide-MHC binding, purified MHC/direct/fluorescence; filed as Kd, often an IC50 or EC50 that approximates it; bounds were set here for any values at or beyond the usual limits of such assays
- conditions: source organism: Mammarenavirus lassaense
measured parameter: Kd

* LLMEGLKLL | ≤ 1 nM

---

- measured target: HLA-B*45:01
- protocol notes: IEDB peptide-MHC binding, purified MHC/competitive/radioactivity; filed as Kd, often an IC50 or EC50 that approximates it; bounds were set here for any values at or beyond the usual limits of such assays
- conditions: source organism: Mammarenavirus guanaritoense
measured parameter: Kd

* PEFDWILGWT | ≥ 70 µM

---

Documented pKd across a set of sequences
- measured target: HLA-B*53:01
- protocol notes: IEDB peptide-MHC binding, purified MHC/competitive/radioactivity; filed as Kd, often an IC50 or EC50 that approximates it; bounds were set here for any values at or beyond the usual limits of such assays
- conditions: source organism: Dengue virus 1 Brazil/97-11/1997
pKd: −log10 of the molar value.
measured parameter: pKd

• EPSKGWNDW = 5.95
• LMLLPTALAF = 4.81
• LTEFQPHQLW = 6.00
• LPDTIETLM = 6.37
• LIGLTARATW = 5.74
• HPGFTVIAL = 7.53
• NPAVLRKLCI = 5.28
